A collection of molecules and their measured activation
- experimentalDetails: endothelial E-selectin upregulation by compounds – imaging, HUVEC, cherry-picked samples, dose response (AID 977605);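 note: signal is the share of imaged cells scored positive for E-selectin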
- recordedConditions: HUVEC E-selectin immunostaining, at 19.5 µM (top of the series), percent of TNF-alpha response over vehicle
Number in %, nothing else.

Ask: activation for O=C(COc1ccc(Cl)cc1)NCCCNC(=O)c1cnccn1 ?
Result: 0.135

Ask: COc1ccc(S(=O)(=O)N(C)C[C@@H]2Oc3c(NS(=O)(=O)c4ccc(F)cc4)cccc3C(=O)N([C@H](C)CO)C[C@@H]2C)cc1 ?
Result: -0.15

Ask: Cc1noc(C)c1NC(=O)N(C)C[C@H]1Oc2ccc(NC(=O)c3ccncc3)cc2C(=O)N([C@H](C)CO)C[C@H]1C ?
Result: 0.014

Ask: CCOC(=O)C1(Cc2ccccc2C)CCCN(C(=O)c2ccnn2C)C1 (stereo not drawn) ?
Result: -0.138

Ask: COc1ccc(S(=O)(=O)Nc2ccc3c(c2)C(=O)N([C@H](C)CO)C[C@@H](C)[C@@H](CN(C)Cc2ccc(Cl)c(Cl)c2)O3)cc1 ?
Result: -0.147

---

- experimentalDetails: endothelial E-selectin upregulation by compounds – imaging, HUVEC, cherry-picked samples, dose response (AID 977605);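 note: signal is the share of imaged cells scored positive for E-selectin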
- recordedConditions: HUVEC E-selectin immunostaining, at 19.5 µM (top of the series), percent of TNF-alpha response over vehicle
quantityKind: activation (%)
Number in %, nothing else.

The following compounds have reported results that may help.
Ask: activation for CCCCOCC1CN(CCCC)S(=O)(=O)c2c(Oc3ccc(C(C)C)cc3)cccc2O1 (stereo not given) ?
Result: -0.279

Ask: C[C@@H]1CN([C@@H](C)CO)C(=O)c2cccc(NS(=O)(=O)c3cn(C)cn3)c2O[C@H]1CN(C)C(=O)Nc1ccc2c(c1)OCO2 ?
Result: -0.015

Ask: C[C@@H]1CN([C@H](C)CO)C(=O)c2cc(Br)cnc2O[C@@H]1CN(C)C(=O)C1CC1 ?
Result: -0.087

Further cases:
Ask: activation for C[C@@H]1CN([C@H](C)CO)C(=O)c2cc(NS(C)(=O)=O)ccc2O[C@H]1CN(C)C(=O)Nc1ccccc1 ?
Result: -0.057

Ask: O=C(CN(C(=O)c1csnn1)c1ccc2c(c1)OCCO2)NCc1ccc(F)cc1 ?
Result: -0.09

---

- experimentalDetails: endothelial E-selectin upregulation by compounds – imaging, HUVEC, cherry-picked samples, dose response (AID 977605);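 note: signal is the share of imaged cells scored positive for E-selectin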
- recordedConditions: HUVEC E-selectin immunostaining, at 19.5 µM (top of the series), percent of TNF-alpha response over vehicle
quantityKind: activation (%)
Number in %, nothing else.

The following molecules have reported results that may help.
Ask: activation for CCOC(=O)c1ccc(N(C(=O)c2ccco2)C(C(=O)NC2CCCCC2)c2ccncc2)cc1 (stereo not given) ?
Result: -0.129

Ask: CCC(=O)N(C)C[C@H]1Oc2ncc(Br)cc2C(=O)N([C@@H](C)CO)C[C@H]1C ?
Result: -0.195

Ask: Cc1ccc(C(=O)NCC(=O)Nc2ccncc2)cc1C ?
Result: -0.08

Ask: COc1ccc(CN(C)C[C@@H]2Oc3ccc(NC(=O)Nc4ccc(F)cc4)cc3CC(=O)N([C@H](C)CO)C[C@@H]2C)cc1 ?
Result: -0.068

Consider the record given below.
Ask: activation for O=C(CN(Cc1ccc(F)cc1)C(=O)CNS(=O)(=O)c1ccc(F)cc1)NCc1ccco1 ?
Result: -0.246
